# Tested on: human melanoma cells (A375)
# Protocol details: Cell proliferation, crystal violet method
# Format: cell-based
# Test parameters: 10 μM and 30 μM; FIG. 14
Measurement kind: A375 cell growth vs vehicle control

CCCCC/C=C\C/C=C\CCCCCCCC(=O)NCCOCCOc1c(-c2ccc(O)c(O)c2)oc2cc(O)cc(O)c2c1=O [Compound 29d]    significantly inhibited
CC/C=C\C/C=C\C/C=C\C/C=C\C/C=C\C/C=C\CCC(=O)NCCOCCOc1c(-c2ccc(O)c(O)c2)oc2cc(O)cc(O)c2c1=O [Compound 29f]    significantly inhibited
CCCCC/C=C\C/C=C\C/C=C\C/C=C\CCCC(=O)NCCOCCOc1c(-c2ccc(O)c(O)c2)oc2cc(O)cc(O)c2c1=O [Compound 29e]    significantly inhibited

These data points were gathered from patent US12059400B2.
